Test system: MDA-MB-468 breast
TEST_SUMMARY: NCI-60 one-dose screen, 48 h (100 = growth as untreated, 0 = no growth, -100 = all killed)
CONDITION: 10 µM unless noted
The panel holds about 83,000 compounds, 20% with a hit somewhere; the sample as a whole holds those more often.
REPORTED_METRIC: growth (%)
Answers are plain numbers, in %.

The cases that follow already have their growth on record.
CSc1nc2c(c(=O)n1C)C(c1ccccc1)C1=C(N2)/C(=C/c2ccccc2)CCC1 (stereo unspecified) : 34.7
O=C(Nc1ccc(Cl)cc1)C1=NCCCCN1 : 111
O=C(O)c1cc([N+](=O)[O-])ccc1Cl : 109
O=C(NNc1nc2cc(F)c(F)cc2n2cccc12)c1ccncn1 : -25.6
COc1ccc(-c2nc(SCCC(C)C)nc(N/N=C(/C)c3ccc(C)cc3)c2C#N)cc1 : 105
O=c1cc(CP(=O)(O)O)c2cc(O)c(-c3ccccc3)cc2o1 : 99.1
O=C(O)c1ccccc1N=Cc1ccccc1 : 112
Brc1ccccc1/C=N/Nc1nc(N/N=C/c2ccccc2Br)nc(N2CCOCC2)n1 : 90.3
O=C1Nc2ccccc2/C1=C/c1cn(C(=O)c2c(Cl)cccc2Cl)c2ccccc12 : 32.7
CN(C)CCCNc1c2ccc(Cl)cc2nc2c1oc1ccccc12 : -49.6

Note: attention shifts to another entry.
**Q:** Consider the compound O=C(c1ccc(F)c(Cl)c1)N1c2ccccc2Sc2ccccc21 and give its measured growth.
**A:** 63.1
